Tested on: L. mexicana promastigotes
Assay: Antipromastigote assay, viable promastigotes counted with trypan blue
Format: cell-based
Details: Leishmania mexicana, read-out: IC50 promastigote
# IC50 per entry
The answer is to be given in µM; state only the numeric part.

{"chemical_structure": "C[C@@H]1[C@H](O)[C@@H](C)/C=C/C=C/C=C/C=C/C=C/C=C/C=C/[C@H](O[C@@H]2O[C@H](C)[C@@H](O)[C@H](N)[C@@H]2O)C[C@@H]2O[C@](O)(C[C@@H](O)C[C@@H](O)[C@H](O)CC[C@@H](O)C[C@@H](O)CC(=O)O[C@H]1C)C[C@H](O)[C@H]2C(=O)O", "units_text": "µM", "quantitative_result": 0.45}

GET IC50 | system: L. mexicana promastigotes | item: `O=C(O)c1ccc(CN/C(=N/C(=O)c2ccccc2)Nc2ccc(Br)cc2)cc1` 51.8

---

Experiment: Cytotoxic activity, MTT colorimetric method
Type: cell-based, Swiss mice
Conditions: Swiss, mouse, murine peritoneal macrophages
reported_property: CC50 (µM)
The answer is to be given in µM; state only the numeric part.

Note down CC50 recorded for `O=C(NC(=Nc1ccc(Br)cc1)NCc1ccccc1)c1ccccc1` 738
